test system: p38α MAP Kinase; assay: A549 p38α MAP Kinase Bright-Glo Reporter Gene Assay; type: cell-based; settings: Homo sapiens, IL-1 beta stimulated, IL-8 promoter luciferase reporter, read-out: A549 p38 RGA IC50
pIC50: −log10 of the molar value.
READOUT_NAME: pIC50

(I) CNc1nccc(-c2cn(C(C)C)nc2-c2cc(Cl)cc(NS(C)(=O)=O)c2F)n1 [Compound 29]
(II) COC(=O)N[C@@H](C)CNc1nccc(-c2cn(C(C)C)nc2-c2cc(Cl)cc(NS(C)(=O)=O)c2F)n1 [Compound 9]
(III) COC(=O)NC[C@H](C)Nc1nccc(-c2cn(C(C)C)nc2-c2cc(Cl)cc(NS(C)(=O)=O)c2F)n1 [Compound 32]
Prompt: Sort ascending by pIC50. Answer by listing the labels in the order asked for.
Completion: I, II, III
(I: 4.77, II: 5.66, III: 6.16)

====

system: A375 melanoma cell line (B-Raf V600E); assay: A375 Cellular Proliferation Assay (A375 CP); format: cell-based; settings: Homo sapiens, A-375; as repeated in p38 table; read-out: A375 CP IC50
READOUT_NAME: IC50 (nM)

COMPOUND: COC(=O)N[C@@H](C)CNc1nccc(-c2cn(C(C)C)nc2-c2cc(Cl)cc(NS(C)(=O)=O)c2F)n1 [Compound 9]
READOUT_NAME: IC50
VAL: 2

(I) CNc1nccc(-c2cn(C(C)C)nc2-c2cc(Cl)cc(NS(C)(=O)=O)c2F)n1 [Compound 29]
(II) COC(=O)NC[C@H](C)Nc1nccc(-c2cn(C(C)C)nc2-c2cc(Cl)cc(NS(C)(=O)=O)c2F)n1 [Compound 32]
Prompt: Pick one: I or II . Which has the bigger IC50 number? Selection: enter the item's label.
Completion: I

====

assay: Liver Microsomal Clearance Assay (human); assay type: in vitro ADME; details: extraction ratio, human liver microsomes, 1 μM compound
READOUT_NAME: ER Human

STRUCTURE_STRING: CCCS(=O)(=O)Nc1cccc(-c2nn(C(C)C)cc2-c2ccnc(NC[C@H](C)NC(=O)OC)n2)c1F
READOUT_NAME: ER Human
VAL: 0.69
--
STRUCTURE_STRING: CCCS(=O)(=O)Nc1cc(Cl)cc(-c2nn(C(C)C)cc2-c2ccnc(NC[C@H](C)NC(=O)OC)n2)c1F
READOUT_NAME: ER Human
VAL: 0.66
--
STRUCTURE_STRING: COC(=O)N[C@@H](C)CNc1nccc(-c2cn(C(C)C)nc2-c2c(F)ccc(NS(C)(=O)=O)c2F)n1
READOUT_NAME: ER Human
VAL: 0.69
--
STRUCTURE_STRING: CCCS(=O)(=O)Nc1ccc(F)c(-c2nn(C(C)C)cc2-c2ccnc(NC[C@H](C)NC(=O)OC)n2)c1F
READOUT_NAME: ER Human
VAL: 0.65

====

assay: Liver Microsomal Clearance Assay (mouse); format: in vitro ADME; details: extraction ratio, mouse liver microsomes, 1 μM compound
READOUT_NAME: ER Mouse

Use the examples below as a reference point.
STRUCTURE_STRING: CCCS(=O)(=O)Nc1cccc(-c2nn(C(C)C)cc2-c2ccnc(NC[C@H](C)NC(=O)OC)n2)c1F
ER Mouse: 0.85
//
STRUCTURE_STRING: COC(=O)N[C@@H](C)CNc1nccc(-c2cn(C(C)C)nc2-c2cc(Cl)cc(NS(C)(=O)=O)c2F)n1
ER Mouse: 0.48
//
STRUCTURE_STRING: CCCS(=O)(=O)Nc1cc(Cl)cc(-c2nn(C(C)C)cc2-c2ccnc(NC[C@H](C)NC(=O)OC)n2)c1F
ER Mouse: 0.79

(A) CCCS(=O)(=O)Nc1ccc(F)c(-c2nn(C(C)C)cc2-c2ccnc(NC[C@H](C)NC(=O)OC)n2)c1F
(B) COC(=O)N[C@@H](C)CNc1nccc(-c2cn(C(C)C)nc2-c2cccc(NS(C)(=O)=O)c2F)n1
Prompt: In terms of reported ER Mouse, does A or B have the smaller number? Selection: enter the item's label.
Completion: B
